Assayed System: unphosphorylated c-FMS kinase (uFMS, Seq. ID no. 1) (Homo sapiens)
Sequence (P07333 538-972): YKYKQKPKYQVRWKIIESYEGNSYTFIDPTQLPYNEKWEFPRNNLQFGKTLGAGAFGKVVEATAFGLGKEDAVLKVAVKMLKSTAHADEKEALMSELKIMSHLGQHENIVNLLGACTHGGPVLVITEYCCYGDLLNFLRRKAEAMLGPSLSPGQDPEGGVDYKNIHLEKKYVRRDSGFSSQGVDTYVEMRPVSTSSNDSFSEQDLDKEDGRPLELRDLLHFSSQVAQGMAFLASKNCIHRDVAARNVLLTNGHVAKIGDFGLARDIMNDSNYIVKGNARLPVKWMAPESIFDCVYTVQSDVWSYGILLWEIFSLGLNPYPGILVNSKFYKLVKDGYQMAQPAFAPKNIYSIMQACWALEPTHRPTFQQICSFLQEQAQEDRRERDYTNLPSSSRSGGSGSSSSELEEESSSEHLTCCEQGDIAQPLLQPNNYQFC
Assay Method Text: uFMS kinase assay (pyruvate kinase/lactate dehydrogenase coupled)
Run Parameters: ATP 500 μM
Measured IC50 of individual entries

{"columns": ["Molecule", "Measured Endpoint", "Result"],
 "data": [
  ["CNC(=O)c1cc(Oc2ccc(NC(=O)NC(=O)C3(OC)CCCC3)nc2)ccn1", "IC50", "< 10 nM"],
  ["CN(C)C(=O)Nc1cc(Oc2ccc(NC(=O)NC(=O)C(C)(C)C)nc2)ccn1", "IC50", "< 10 nM"],
  ["CCC(=O)Nc1cc(Oc2ccc(NC(=O)NC(=O)C(C)(C)C)nc2)ccn1", "IC50", "10 to 100 nM"],
  ["CCC(=O)Nc1cc(Oc2ccc(NC(=O)NC(=O)C3CCOCC3)nc2)ccn1", "IC50", "10 to 100 nM"],
  ["O=C(NC(=O)C1CCOCC1)Nc1ccc(Oc2ccnc(NC(=O)C3CC3)c2)cn1", "IC50", "< 10 nM"],
  ["CC(=O)Nc1cc(Oc2ccc(NC(=O)NC(=O)C3CCOC3)nc2)ccn1 (centres unmarked)", "IC50", "10 to 100 nM"]
]}

Look up IC50 with unphosphorylated c-FMS kinase (uFMS, Seq. ID no. 1) (Homo sapiens) for this molecule: `CN1CCC(C(=O)Nc2cc(Oc3ccc(NC(=O)NC(=O)C(C)(C)C)nc3)ccn2)CC1`
< 10 nM

Look up IC50 with unphosphorylated c-FMS kinase (uFMS, Seq. ID no. 1) (Homo sapiens) for this molecule: `CC(C)(C)C(=O)NC(=O)Nc1ccc(Oc2ccnc(NC(=O)CC#N)c2)cn1`
10 to 100 nM

* * *

Measured IC50 of individual entries
Assayed System: phospho-FMS in THP-1 cells (Homo sapiens)
Construct: endogenous in cells
Sequence (P07333 20-972): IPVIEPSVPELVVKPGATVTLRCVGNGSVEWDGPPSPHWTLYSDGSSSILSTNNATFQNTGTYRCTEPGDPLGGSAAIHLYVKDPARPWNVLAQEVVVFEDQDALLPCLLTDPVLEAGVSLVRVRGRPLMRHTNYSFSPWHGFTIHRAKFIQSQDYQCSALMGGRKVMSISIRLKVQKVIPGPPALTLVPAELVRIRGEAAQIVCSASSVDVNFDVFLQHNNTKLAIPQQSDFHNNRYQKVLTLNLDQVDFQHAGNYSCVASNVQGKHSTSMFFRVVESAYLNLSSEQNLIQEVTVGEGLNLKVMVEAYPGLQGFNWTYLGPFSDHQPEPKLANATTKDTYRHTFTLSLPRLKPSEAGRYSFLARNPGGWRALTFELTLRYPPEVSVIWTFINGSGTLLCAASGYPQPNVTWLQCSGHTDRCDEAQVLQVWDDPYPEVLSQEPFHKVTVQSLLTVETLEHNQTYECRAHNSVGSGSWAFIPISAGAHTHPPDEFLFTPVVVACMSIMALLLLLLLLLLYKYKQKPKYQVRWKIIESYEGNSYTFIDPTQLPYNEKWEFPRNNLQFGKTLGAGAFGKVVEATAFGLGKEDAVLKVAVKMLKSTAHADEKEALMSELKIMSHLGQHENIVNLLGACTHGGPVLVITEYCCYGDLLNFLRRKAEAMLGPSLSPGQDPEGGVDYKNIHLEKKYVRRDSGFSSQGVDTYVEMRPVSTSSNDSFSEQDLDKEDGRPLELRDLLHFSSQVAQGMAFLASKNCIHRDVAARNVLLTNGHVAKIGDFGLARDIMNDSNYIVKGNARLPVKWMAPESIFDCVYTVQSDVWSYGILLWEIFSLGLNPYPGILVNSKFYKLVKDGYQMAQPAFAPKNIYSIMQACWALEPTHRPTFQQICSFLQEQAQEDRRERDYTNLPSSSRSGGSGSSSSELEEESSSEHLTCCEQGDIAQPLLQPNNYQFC
Assay Method Text: Phospho-FMS ELISA assay in THP-1 cells
Run Parameters: 4 hours compound, M-CSF stimulated; read-out: pFMS inhibition in THP-1 cells

{"columns": ["Given Smiles", "Measured Endpoint", "Result"],
 "data": [
  ["COC(C)(C)C(=O)NC(=O)Nc1ccc(Oc2ccnc(NC(=O)C3CC3)c2)cn1", "IC50", "< 10 nM"],
  ["CC(=O)Nc1cc(Oc2ccc(NC(=O)NC(=O)C3CCCC3)nc2C)ccn1", "IC50", "< 10 nM"]
]}

Look up IC50 with phospho-FMS in THP-1 cells (Homo sapiens) for this compound: `CN(C)C(=O)Nc1cc(Oc2ccc(NC(=O)NC(=O)C3(C)CCOCC3)nc2)ccn1`
10 to 100 nM

Look up IC50 with phospho-FMS in THP-1 cells (Homo sapiens) for this compound: `COC(C)(C)C(=O)NC(=O)Nc1ccc(Oc2ccnc(NC(C)=O)c2)cn1`
< 10 nM

Look up IC50 with phospho-FMS in THP-1 cells (Homo sapiens) for this compound: `CN(C)C1CN(C(=O)Nc2cc(Oc3ccc(NC(=O)NC(=O)C(C)(C)C)nc3)ccn2)C1`
10 to 100 nM

Look up IC50 with phospho-FMS in THP-1 cells (Homo sapiens) for this compound: `CN(C)C1CCN(C(=O)Nc2cc(Oc3ccc(NC(=O)NC(=O)C(C)(C)C)nc3)ccn2)CC1`
< 10 nM

Look up IC50 with phospho-FMS in THP-1 cells (Homo sapiens) for this compound: `COC(C)(C)C(=O)NC(=O)Nc1cc(C)c(Oc2ccnc(NC(C)=O)c2)cn1`
< 10 nM

Look up IC50 with phospho-FMS in THP-1 cells (Homo sapiens) for this compound: `CC(=O)Nc1cc(Oc2cnc(NC(=O)NC(=O)C(C)(C)C)cc2C)ccn1`
< 10 nM

* * *

Tested on: osteoclast precursors
Assay Method Text: Osteoclast tartrate-resistant acid phosphatase assay
Assay type: cell-based
Run Parameters: Osteoclast; 7-14 days, RANKL and M-CSF
Measured Endpoint: IC50

{"columns": ["Given Smiles", "Assayed System", "IC50"],
 "data": [
  ["CC1(C(=O)NC(=O)Nc2ccc(Oc3ccnc(NC(=O)C4CC4)c3)cn2)CC1", "osteoclast precursors", "< 0.01 µM"],
  ["CNC(=O)c1cc(Oc2ccc(NC(=O)NC(=O)C3(C)CCOCC3)nc2)ccn1", "osteoclast precursors", "0.01 to 0.1 µM"],
  ["CN1CCC(C(=O)Nc2cc(Oc3ccc(NC(=O)NC(=O)C4(C)CC4)nc3)ccn2)CC1", "osteoclast precursors", "0.01 to 0.1 µM"]
]}

What value of measured IC50 is listed for `CC(=O)Nc1cc(Oc2ccc(NC(=O)NC(=O)CC3CCOCC3)nc2)ccn1` ?
0.01 to 0.1 µM

What value of measured IC50 is listed for `CC(=O)Nc1cc(Oc2ccc(NC(=O)NC(=O)C3CCOCC3)nc2)ccn1` ?
< 0.01 µM

What value of measured IC50 is listed for `CCN1CCN(C(=O)Nc2cc(Oc3ccc(NC(=O)NC(=O)C(C)(C)C)nc3)ccn2)CC1` ?
< 0.01 µM

What value of measured IC50 is listed for `CC(=O)Nc1cc(Oc2ccc(NC(=O)NC(=O)C3CCCCC3)nc2)ccn1` ?
< 0.01 µM

What value of measured IC50 is listed for `CC(C)C(=O)NC(=O)Nc1ccc(Oc2ccnc(NC(=O)C3CCN(C)CC3)c2)cn1` ?
0.1 to 1 µM

* * *

Assayed System: phospho-FMS in THP-1 cells (Homo sapiens)
Construct: endogenous in cells
Assay Method Text: Phospho-FMS ELISA assay in THP-1 cells
Run Parameters: 4 hours compound, M-CSF stimulated; read-out: pFMS inhibition in THP-1 cells
Measured Endpoint: IC50

Before answering, review these 2 worked examples.
{"columns": ["Given Smiles", "Measured Endpoint", "Result"],
 "data": [
  ["Cc1nc(NC(=O)NC(=O)C(C)(C)C)ccc1Oc1ccnc(NC(=O)N2CCOCC2)c1", "IC50", "10 to 100 nM"],
  ["CN(C)C(=O)Nc1cc(Oc2ccc(NC(=O)NC(=O)C(C)(C)C)nc2)ccn1", "IC50", "< 10 nM"]
]}

What value of measured IC50 is listed for `CN1CCC(C(=O)Nc2cc(Oc3ccc(NC(=O)NC(=O)C(C)(C)C)nc3)ccn2)CC1` ?
10 to 100 nM

What value of measured IC50 is listed for `Cc1nc(NC(=O)NC(=O)C(C)(C)C)ccc1Oc1ccnc(NC(=O)C(C)C)c1` ?
< 10 nM

What value of measured IC50 is listed for `COCCNC(=O)Nc1cc(Oc2ccc(NC(=O)NC(=O)C(C)(C)C)nc2)ccn1` ?
< 10 nM

What value of measured IC50 is listed for `CN1CCN(C2CCN(C(=O)Nc3cc(Oc4ccc(NC(=O)NC(=O)C(C)(C)C)nc4)ccn3)CC2)CC1` ?
< 10 nM

What value of measured IC50 is listed for `CC(C)C(=O)NC(=O)Nc1ccc(Oc2ccnc(NC(=O)N3CCN(C)CC3)c2)cn1` ?
< 10 nM

What value of measured IC50 is listed for `CC(C)(C)C(=O)NC(=O)Nc1ccc(Oc2ccnc(NC(=O)N3CCOCC3)c2)cn1` ?
< 10 nM

What value of measured IC50 is listed for `CC(=O)Nc1cc(Oc2ccc(NC(=O)NC(=O)C3CCCC3)nc2)ccn1` ?
10 to 100 nM

What value of measured IC50 is listed for `CN(C)[C@@H]1CCN(C(=O)Nc2cc(Oc3ccc(NC(=O)NC(=O)C(C)(C)C)nc3)ccn2)C1` ?
< 10 nM

What value of measured IC50 is listed for `CC(=O)Nc1cc(Oc2ccc(NC(=O)NC(=O)C3(C)CC3)nc2)ccn1` ?
10 to 100 nM

What value of measured IC50 is listed for `CNC(=O)c1cc(Oc2ccc(NC(=O)NC(=O)C3(C)CCOCC3)nc2)ccn1` ?
10 to 100 nM

* * *

Measured pIC50 of individual entries
Assayed System: unphosphorylated c-FMS kinase (uFMS, Seq. ID no. 1) (Homo sapiens)
Assay Method Text: uFMS kinase assay (pyruvate kinase/lactate dehydrogenase coupled)
Run Parameters: ATP 500 μM
pIC50: −log10 of the molar value.

{"columns": ["Given Smiles", "pIC50"],
 "data": [
  ["CN(C)C(=O)Nc1cc(Oc2ccc(NC(=O)NC(=O)C3CCOCC3)nc2)ccn1", "> 8.00"]
]}

What value of measured pIC50 is listed for `CC(=O)Nc1cc(Oc2ccc(NC(=O)NC(=O)CC3CCCCC3)nc2)ccn1` ?
> 8.00

What value of measured pIC50 is listed for `CC(=O)Nc1cc(Oc2ccc(NC(=O)NC(=O)C3CCOCC3)nc2C)ccn1` ?
7.00 to 8.00

What value of measured pIC50 is listed for `CN1CCC(NC(=O)c2cc(Oc3ccc(NC(=O)NC(=O)C(C)(C)C)nc3)ccn2)CC1` ?
6.00 to 7.00
